Reported kinase still bound, per cent of control values are given for each entry in this list.
- tgt: KDR (human) (UniProt P35968)
- Sequence (P35968 whole entry, looked up): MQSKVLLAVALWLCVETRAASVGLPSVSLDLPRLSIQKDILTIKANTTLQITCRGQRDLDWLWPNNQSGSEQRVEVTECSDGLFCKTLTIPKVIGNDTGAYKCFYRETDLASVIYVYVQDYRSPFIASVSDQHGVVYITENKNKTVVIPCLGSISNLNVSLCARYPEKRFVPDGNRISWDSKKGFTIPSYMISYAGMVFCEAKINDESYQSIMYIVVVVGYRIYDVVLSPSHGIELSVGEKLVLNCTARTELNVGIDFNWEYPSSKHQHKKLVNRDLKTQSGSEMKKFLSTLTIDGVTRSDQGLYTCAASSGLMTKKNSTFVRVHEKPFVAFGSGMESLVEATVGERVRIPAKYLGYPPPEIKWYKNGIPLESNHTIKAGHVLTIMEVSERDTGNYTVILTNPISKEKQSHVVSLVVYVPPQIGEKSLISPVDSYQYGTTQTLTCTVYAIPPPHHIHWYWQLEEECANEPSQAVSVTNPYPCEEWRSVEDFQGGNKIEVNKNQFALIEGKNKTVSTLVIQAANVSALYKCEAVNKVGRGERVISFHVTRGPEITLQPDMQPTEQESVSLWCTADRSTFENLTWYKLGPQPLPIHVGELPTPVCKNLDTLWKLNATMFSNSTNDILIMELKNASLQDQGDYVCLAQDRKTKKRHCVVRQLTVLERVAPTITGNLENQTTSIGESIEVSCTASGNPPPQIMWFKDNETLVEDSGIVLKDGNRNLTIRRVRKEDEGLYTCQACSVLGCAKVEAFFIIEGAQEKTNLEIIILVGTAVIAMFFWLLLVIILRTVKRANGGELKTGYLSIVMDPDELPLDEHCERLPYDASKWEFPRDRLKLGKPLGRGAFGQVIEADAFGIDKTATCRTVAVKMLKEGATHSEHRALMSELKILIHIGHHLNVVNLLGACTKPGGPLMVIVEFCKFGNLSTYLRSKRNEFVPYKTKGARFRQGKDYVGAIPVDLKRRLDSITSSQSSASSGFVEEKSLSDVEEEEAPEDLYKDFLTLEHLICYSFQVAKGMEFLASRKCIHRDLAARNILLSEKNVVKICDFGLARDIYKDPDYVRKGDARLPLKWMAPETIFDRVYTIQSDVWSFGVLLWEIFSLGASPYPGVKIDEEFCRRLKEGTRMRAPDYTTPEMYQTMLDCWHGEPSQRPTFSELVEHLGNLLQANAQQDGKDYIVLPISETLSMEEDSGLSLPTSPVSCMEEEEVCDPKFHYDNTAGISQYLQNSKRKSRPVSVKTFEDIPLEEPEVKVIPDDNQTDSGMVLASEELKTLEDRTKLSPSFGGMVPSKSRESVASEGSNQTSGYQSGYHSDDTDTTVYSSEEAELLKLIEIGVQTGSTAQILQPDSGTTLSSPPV
- experiment description: KINOMEscan competition binding
- measurement context: compound 10.0 µM
Your answer is read as %, so omit the unit and give the number.

Solved cases (2 shown):
In [3]: df
Out[3]:
                            compound_smiles                           tgt  measured_value
0  N#CCNC(=O)c1ccc(-c2ccnc(Nc3ccc(N4CCOCC4)cc3)n2)cc1  KDR (human) (UniProt P35968)              99
1  NC(=O)Nc1cc(-c2cccc(F)c2)sc1C(=O)N[C@@H]1CCCNC1  KDR (human) (UniProt P35968)            0.05

// next entry
Entry `CCN(CC)CCCCNc1ncc2c(n1)N(C)C(=O)N(c1c(Cl)c(OC)cc(OC)c1Cl)C2` , tested on KDR (human) (UniProt P35968), has a reported kinase still bound, per cent of control of 100

###

- tgt: NEK4 (human) (UniProt P51957)
- Sequence (P51957 whole entry, looked up): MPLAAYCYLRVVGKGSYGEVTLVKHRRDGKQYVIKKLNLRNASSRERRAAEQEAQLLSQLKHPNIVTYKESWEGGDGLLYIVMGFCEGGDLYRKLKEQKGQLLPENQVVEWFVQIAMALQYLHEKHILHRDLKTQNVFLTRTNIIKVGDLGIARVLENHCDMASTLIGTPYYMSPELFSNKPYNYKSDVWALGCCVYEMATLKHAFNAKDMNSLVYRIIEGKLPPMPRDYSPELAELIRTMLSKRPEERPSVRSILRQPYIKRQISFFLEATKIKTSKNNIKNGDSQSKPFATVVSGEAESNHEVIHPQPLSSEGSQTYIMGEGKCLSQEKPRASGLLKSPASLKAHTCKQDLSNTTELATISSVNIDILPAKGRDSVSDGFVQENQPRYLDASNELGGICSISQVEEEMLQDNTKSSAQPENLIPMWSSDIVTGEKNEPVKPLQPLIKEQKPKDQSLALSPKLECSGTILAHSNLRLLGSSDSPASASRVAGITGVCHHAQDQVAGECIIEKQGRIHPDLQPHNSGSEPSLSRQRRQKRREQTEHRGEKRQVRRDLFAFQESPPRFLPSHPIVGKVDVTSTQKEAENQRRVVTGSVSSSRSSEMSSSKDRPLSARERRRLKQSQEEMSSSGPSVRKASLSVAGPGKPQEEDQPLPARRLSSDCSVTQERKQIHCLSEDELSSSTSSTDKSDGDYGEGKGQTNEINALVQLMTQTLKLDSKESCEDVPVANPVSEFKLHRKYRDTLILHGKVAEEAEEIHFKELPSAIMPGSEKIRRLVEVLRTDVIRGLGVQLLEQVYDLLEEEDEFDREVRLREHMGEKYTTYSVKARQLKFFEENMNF
- experiment description: KINOMEscan competition binding
- measurement context: compound 10.0 µM
Entries and their kinase still bound, per cent of control
Answer as a quantity: numeral, then unit.

Consider the reported kinase still bound, per cent of control for these compounds:
In [3]: df
Out[3]:
                            compound_smiles                        observed_property  measured_value
0  COc1cc2ncnc(-n3nc(-c4ccccn4)nc3N)c2cc1OC  kinase still bound, per cent of control             41%
1  CCN1CCN(C(=O)Cc2ccc(Nc3ncc(F)c(Nc4ccc(C(=O)Nc5ccccc5Cl)cc4)n3)cc2)CC1  kinase still bound, per cent of control             63%
2  CNC(=O)c1cc(Oc2ccc(NC(=O)Nc3ccc(Cl)c(C(F)(F)F)c3)cc2)ccn1  kinase still bound, per cent of control             81%
3  O=C(Nc1cccc(Nc2ncc(Br)c(NCCc3cnc[nH]3)n2)c1)N1CCCC1  kinase still bound, per cent of control            9.4%
4  COc1cc(C(=O)N2CCC(N3CCN(C)CC3)CC2)ccc1Nc1ncc2c(n1)N(C)c1ccccc1C(=O)N2C  kinase still bound, per cent of control             95%

Please turn your attention to the following entry.
get_value(item= `O=c1cc(N2CCOCC2)oc2c(-c3cccc4c3sc3ccccc34)cccc12` , readout=kinase still bound, per cent of control) returns 100%

###

- tgt: GSK3B (human) (UniProt P49841)
- Sequence (P49841 whole entry, looked up): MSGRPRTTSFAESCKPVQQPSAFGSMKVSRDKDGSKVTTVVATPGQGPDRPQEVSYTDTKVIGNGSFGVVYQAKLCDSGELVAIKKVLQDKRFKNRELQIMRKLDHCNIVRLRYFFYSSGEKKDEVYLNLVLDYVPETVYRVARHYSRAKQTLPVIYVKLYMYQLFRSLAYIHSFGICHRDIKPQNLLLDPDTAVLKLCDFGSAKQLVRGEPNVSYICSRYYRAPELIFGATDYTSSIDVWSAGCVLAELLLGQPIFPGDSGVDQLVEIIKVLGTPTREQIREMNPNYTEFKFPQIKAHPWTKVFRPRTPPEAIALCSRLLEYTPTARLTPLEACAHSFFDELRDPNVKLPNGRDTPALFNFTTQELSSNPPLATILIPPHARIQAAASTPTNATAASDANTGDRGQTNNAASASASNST
- experiment description: KINOMEscan competition binding
- measurement context: compound 10.0 µM
Rule: measured kinase still bound, per cent of control below 80% gets Yes; anything equal to or greater than 80% gets No.

Examples from the recorded data:
In [3]: df
Out[3]:
                            compound_smiles  class_label
0  C=CC(=O)Nc1cc(-n2c(=O)ccc3cnc4ccc(-c5cn[nH]c5)cc4c32)ccc1C           No
1  O=c1cc(N2CCOCC2)oc2c(-c3cccc4c3sc3ccccc34)cccc12          Yes
2  COc1cc2ncn(-c3cc(OCc4ccccc4C(F)(F)F)c(C(N)=O)s3)c2cc1OC           No
3  CN(C)C/C=C/C(=O)Nc1ccc(C(=O)Nc2cccc(Nc3nccc(-c4cccnc4)n3)c2)cc1          Yes
4  CCN(CC)CCCCNc1ncc2c(n1)N(C)C(=O)N(c1c(Cl)c(OC)cc(OC)c1Cl)C2           No
5  CNC(=O)c1ccc(Nc2cc(Nc3ccccc3S(=O)(=O)C(C)C)c3cc[nH]c3n2)nc1           No
6  COc1ccc(N(C(=O)Oc2c(C)cccc2C)c2ccnc(Nc3ccc(N4CCN(C)CC4)cc3)n2)c(OC)c1          Yes
7  COc1cc(C(=O)N2CCC(N3CCN(C)CC3)CC2)ccc1Nc1ncc2c(n1)N(C)c1ccccc1C(=O)N2C           No

Enquiry: For `CNC(=O)c1cc(Oc2ccc(NC(=O)Nc3ccc(Cl)c(C(F)(F)F)c3)cc2)ccn1` , is the recorded kinase still bound, per cent of control below the cut-off of 80%?
Return: No

Where do the numbers come from? From the kinase profiling compilation of Christmann-Franck et al. (2016).
